Test system: Plasmodium berghei
Assay: Screen against P. berghei liver stage (PbLuc), transformed with Luciferase, at 10uM
Assay type: functional, HepG2
Conditions: tested at 10 uM
Among all 69,000 compounds or so, about 8,600 (12%) showed an effect of 50% or more. This excerpt belongs to a sample that is enriched for strong results.
Please respond with rule met when measured INHIBITION is strictly beneath 30%, and with rule not met in all other cases.

Cc1nn(C)c2cn(C(C)C(=O)NCc3ccc(F)cc3)nc12 (stereo unspecified)    rule met
CSc1cccc(CNC(=O)[C@H]2CNC[C@H](C(=O)N3CCOCC3)C2)c1    rule not met
Cc1nn(C)c2cn(C(C)C(=O)NCc3ccncc3)nc12 (stereo unspecified)    rule not met
Cc1nn(C)c2cn(C(C)C(=O)NCc3ccccn3)nc12 (stereo unspecified)    rule not met
O=C(O)c1c[nH]c2cc(NS(=O)(=O)c3cc(F)ccc3Cl)ccc12    rule met

Request: Strictly below 30%: is that where INHIBITION of CCCNC(=O)C(C)n1nc(-c2ccc(C)o2)cc(N)c1=O (stereo unspecified) sits?
Response: rule not met

###

Test system: Plasmodium berghei
Assay: Screen against P. berghei liver stage (PbLuc), transformed with Luciferase, at 10uM
Assay type: functional, HepG2
Settings: tested at 10 uM
Hit rate of the full screen: of about 69,000 compounds, about 8,600 (12%) showed an effect of 50% or more. Many of the other results were omitted from the sample, so strong results are more common in it than they were.
readout: INHIBITION (%)
Give bare numbers, in %.

CN1C[C@H]2N(c3ncccn3)CCC[C@@]2(C(=O)NCC2CC2)C1    67.5
CNC(=O)[C@H]1C[C@@H]2CN(C(=O)c3ccncc3)C[C@@H]2N1S(C)(=O)=O    20.4
CNC(=O)N1C[C@H]2N(c3ncccn3)CCC[C@@]2(C(=O)NCC2CC2)C1    17.7
CNC(=O)[C@@]12CCCN(c3ncccn3)[C@@H]1CN(C)C2    -17.4
c1cc2cc[nH]c2c(CC2CN(Cc3cscn3)C2)n1    53.6
Cn1ccc2cc(C(=O)N3CC[C@@]4(O)CCCC[C@H]4C3)ccc21    -4.87
Cc1ccc(C(=O)N2CC[C@@]3(O)CCCC[C@H]3C2)cc1    56.3
c1cc2cc[nH]c2c(CC2CN(Cc3cncs3)C2)n1    -0.232

Dear reader, for each entry below, please note its INHIBITION.
1. COc1ccc(C(=O)N2CC[C@@]3(O)CCCC[C@H]3C2)cc1OC
2. CCN(CC)CC1CN(Cc2ccco2)Cc2nccn2C1 (stereo not given)

Response:
1: 44.3; 2: -33.9

###

Field: INHIBITION. Provide a value for each of the molecules that follow.
Test system: Plasmodium berghei
Test: Screen against P. berghei liver stage (PbLuc), transformed with Luciferase, at 10uM
Format: functional, HepG2
Conditions: tested at 10 uM
Out of some 69,000 compounds screened, about 8,600 (12%) showed an effect of 50% or more. The full list was thinned out, with strong results kept by preference.
Answers are plain numbers, in %.

Look over these answered cases.
Cc1cccc(N(CCC(N)=O)C(=O)c2ccnc(C)n2)c1    50.5
c1cncc(C[C@H]2[C@H](N3CCOCC3)CCN2Cc2cccs2)c1    -7.24
CCOc1ccc(NC(=O)NCc2cccnc2OCC)cc1    13.6
Cc1cccc(N(CCC(N)=O)C(=O)c2cnccn2)c1    12.9
O=C(N[C@H]1CCCC[C@@H]1O)c1cccc(-c2nc3ccccc3[nH]2)c1    -13.2

Request: Report INHIBITION for Cc1nc(C)n(CC2CCCN2Cc2nc3ccccc3o2)n1 (stereo unspecified)
Response: 33.8

###

Test system: Plasmodium berghei
Assay: Screen against P. berghei liver stage (PbLuc), transformed with Luciferase, at 10uM
Assay type: functional, HepG2
Details: tested at 10 uM
The campaign covered roughly 69,000 compounds. About 8,600 (12%) showed an effect of 50% or more. Shown is part of a subset that was picked to be rich in strong results.
Field: INHIBITION. Provide a value for each of the compounds that follow.
Numbers only, in %.

Look over these answered cases.
CCN(CC)C(=O)c1ccc(CNc2cncc(-n3cccn3)n2)cc1    29.4
c1nc(N2CCOCC2)ncc1-c1cncn1CCCN1CCCCC1    26.585
Cc1cnc(N2CC3(CCN(Cc4cccnc4)C3)C2)nc1    27.2
CCCn1cc(-c2cc(C(=O)N(C)C)c3ccc(OC)cc3n2)cn1    29.85
Cc1cc(C(=O)N2CCN(c3nc4c(F)cccc4s3)CC2)no1    -18.5

Dear reader, for each entry below, please note its INHIBITION.
1. Cc1cc(C(=O)N2CCN(c3nc4c(C(C)C)cccc4s3)CC2)no1
2. c1cnc(N2CCC3(CCN(Cc4ccncc4)CC3)CC2)nc1
3. Cc1cc(C(=O)N2CCN(c3nc4c(C)cccc4s3)CC2)no1
4. CN(CCc1cccs1)C(=O)Nc1cccc(S(C)(=O)=O)c1
5. C[C@@]1(O)CCN(C2CCOCC2)C[C@H]1n1ccc(=O)[nH]c1=O
6. COCCNC(=O)N1CCN(C(=O)Cc2ccccc2F)CC1

Response:
90.4
21.6
24.7
-93.6
10.95
-63.6

###

Tested on: Plasmodium berghei
Assay: Screen against P. berghei liver stage (PbLuc), transformed with Luciferase, at 10uM
Assay type: functional, HepG2
Conditions: tested at 10 uM
Among all 69,000 compounds or so, about 8,600 (12%) showed an effect of 50% or more. The sample as a whole holds a higher share of strong results than the screen did.
readout: INHIBITION (%)
Numbers only, in %.

Cc1noc([C@@H](C)NCc2cccc(Cl)c2)c1C(=O)O    48.2
CC(=O)N(Cc1ncc(C(C)C)o1)C1CCN(Cc2cc(C)no2)C1 (configuration not stated)    13.95
CCN(CCO)C[C@@H]1CN(c2cccc(C(F)(F)F)n2)C[C@@H]1CO    3.13
CN(C)C(=O)CN1CCCC(CCCc2ccccn2)(C(N)=O)C1 (configuration not stated)    -50.2
CCN(CC)CC1CN(Cc2ccc(C)s2)Cc2nccn2C1 (configuration not stated)    -30.6
O=C(C1CCCO1)N1CCc2ncnc(NC3CCC3)c2CC1 (configuration not stated)    -29.5
Cc1ccc(CN2Cc3nccn3CC(Cn3cccn3)C2)s1 (configuration not stated)    45.7
CCOC(=O)CSc1nnc([C@@H](N)C(C)CC)o1 (some centres not stated)    -30.6
O=C(C1CCOC1)N1CCc2ncnc(NC3CCC3)c2CC1 (configuration not stated)    51.3
O=C([C@H]1CCCO1)N1CCc2ncnc(NC3CC3)c2CC1    48.5

Dear reader, for each entry below, please note its INHIBITION.
1. O=C(C1CCOC1)N1CCc2ncnc(C3CC3)c2CC1 (configuration not stated)
2. CC(C)Nc1nc2c(c(NC3CC3)n1)CCN(C(=O)C1CCOC1)CC2 (configuration not stated)

Response:
[-13.4, 34.3]

###

Tested on: Plasmodium berghei
Experiment: Screen against P. berghei liver stage (PbLuc), transformed with Luciferase, at 10uM
Type: functional, HepG2
Settings: tested at 10 uM
In all, about 69,000 compounds went through this assay and about 8,600 (12%) showed an effect of 50% or more. The full list was thinned out, with strong results kept by preference.
Field: INHIBITION. Provide a value for each of the molecules that follow.
Give bare numbers, in %.

Look over these answered cases.
Cc1noc([C@@H](C)NCc2ccc(F)cc2)c1C(=O)O    -4.82
CNc1cnc(CC2COCCN(Cc3cccc(C)n3)C2)cn1 (stereo unspecified)    3.48
COCC(=O)N1C[C@@H](OCc2cccnc2)[C@H]2OCCC[C@@H]21    26.5
COCC(=O)NCCc1nc(N(C)C)ncc1-c1ccncc1    14.325

Dear reader, for each entry below, please note its INHIBITION.
1. Cc1nc(CN(C)Cc2cnc(N3CCOCC3)s2)no1
2. CN(C)C(=O)CC1CC2(CCN(Cc3ccsc3)CC2)c2ccccc21 (stereo unspecified)

Response:
1. 32.1
2. 64.2

###

System: Plasmodium berghei
Test: Screen against P. berghei liver stage (PbLuc), transformed with Luciferase, at 10uM
Assay type: functional, HepG2
Conditions: tested at 10 uM
The whole screen tested about 69,000 compounds, of which about 8,600 (12%) showed an effect of 50% or more. The full list was thinned out, with strong results kept by preference.
Field: INHIBITION. Provide a value for each of the molecules that follow.
Answers are plain numbers, in %.

Look over these answered cases.
Cn1ccc(C(=O)N2CCC[C@]3(C[C@@H](OCc4ccccn4)CO3)C2)n1    40.9
O=C(CN1CCOC(Cn2cccn2)C1)Nc1nccs1 (stereo unspecified)    53.3
C=C(C)COc1ccc(C(=O)NCC2CC(CC)=NO2)cc1 (stereo unspecified)    6.26
Cc1nnc(NC(=O)CN2CCOC(Cn3cccn3)C2)s1 (stereo unspecified)    17.4
Cc1cccc(C)c1OCC(O)CNCc1c(C)nn(C)c1N(C)C (stereo unspecified)    19.4

Request: Report INHIBITION for CCC(=O)c1ccc(OCC(=O)NCC2CCCO2)cc1 (stereo unspecified)
Response: 3.48

Just for reference, ChEMBL document CHEMBL4513216 is where these values come from.
